Taken from ChEMBL document CHEMBL5604063.

Target: Genome polyprotein (dengue virus type 2, UniProt P29990)
Sequence (P29990 1346-1475 limits assumed): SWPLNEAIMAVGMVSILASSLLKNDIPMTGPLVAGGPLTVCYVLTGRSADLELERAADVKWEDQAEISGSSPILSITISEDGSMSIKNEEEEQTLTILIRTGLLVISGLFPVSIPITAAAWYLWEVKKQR
Sequence (P29990 1476-2093 limits assumed): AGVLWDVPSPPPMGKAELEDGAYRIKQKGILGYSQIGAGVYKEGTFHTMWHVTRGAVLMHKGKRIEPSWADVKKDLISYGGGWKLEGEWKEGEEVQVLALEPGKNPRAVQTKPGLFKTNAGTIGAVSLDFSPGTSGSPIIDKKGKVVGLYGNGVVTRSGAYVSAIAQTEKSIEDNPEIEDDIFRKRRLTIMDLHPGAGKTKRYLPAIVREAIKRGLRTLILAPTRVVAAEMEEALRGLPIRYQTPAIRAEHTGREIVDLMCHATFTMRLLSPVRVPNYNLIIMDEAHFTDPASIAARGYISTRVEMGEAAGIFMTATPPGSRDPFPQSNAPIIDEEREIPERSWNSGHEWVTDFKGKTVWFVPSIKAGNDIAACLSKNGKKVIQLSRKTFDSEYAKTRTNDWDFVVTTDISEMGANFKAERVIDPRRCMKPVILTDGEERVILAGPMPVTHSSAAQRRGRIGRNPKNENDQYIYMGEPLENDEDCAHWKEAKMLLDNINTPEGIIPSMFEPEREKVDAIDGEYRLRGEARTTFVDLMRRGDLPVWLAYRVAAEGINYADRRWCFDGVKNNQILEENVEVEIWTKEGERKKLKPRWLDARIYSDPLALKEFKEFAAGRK
Format: functional, Thailand/16681/1984
pIC50: −log10 of the molar value.
parameterMeasured: pIC50

Fill in: pIC50 of "C[C@]1(C(=O)N[C@H](C(=O)Nc2cccc(CN)c2)c2ccc(OCc3ccccc3)cc2)COc2ccccc2O1" is ___ 4.28

Field request: pIC50 | item: "Cc1c(C(F)(F)F)n[nH]c1CN1CCC(c2cscn2)CC1" < 4.00

Find the recorded pIC50 belonging to "CCn1ccnc(N2CC[C@H](c3ccc(OC)nc3)C2)c1=O" and report it. < 4.00

What value of pIC50 has been reported for the following molecule? "CCn1c(=O)c(N2C[C@@H]3[C@H](C2)[C@H]2CC[C@@H]3O2)nc2ccccc21" < 4.00

Name the recorded pIC50 for "CCn1ccnc(N2C[C@H](c3c[nH]c4ccccc34)[C@H](OC(C)=O)C2)c1=O" . < 4.00

---

Biological target: Genome polyprotein (dengue virus type 2, UniProt P29990)
Format: functional, Thailand/16681/1984
parameterMeasured: pIC50
Please express pIC50 as -log10 of the molar concentration.

Tell me the measured pIC50 of "NCc1cccc(NC(=O)C[C@H](NC(=O)OCc2ccccc2)c2ccc(Cl)c(F)c2)c1" , please. 4.01

What value of pIC50 has been reported for the following compound? "CNC(=O)c1cc(C#N)ccc1NS(=O)(=O)c1ccc(Oc2ccccc2Cl)cc1" 4.35

---

Target: Genome polyprotein (dengue virus type 2, UniProt P29990)
Type: functional, Thailand/16681/1984
pIC50: −log10 of the molar value.
Give measured pIC50 for each item. Keep answers brief.

Tell me the measured pIC50 of "CCOCCNC(=O)[C@H](Nc1ccc2c(c1)CNC2)c1cc(Cl)cc2[nH]ncc12" , please. < 4.00

Request the reported pIC50 associated with "COCc1cc(Cl)cc(C(=O)Nc2cccc(CN)c2)c1" < 4.00

Given the entry "CN1CCc2c([nH]c3ccc(C(=O)Nc4ccc5c(c4)CNC5)cc23)C1=O" , report its measured pIC50. < 4.00

Looking for the measured pIC50 of "O=C(Nc1ccc2c(c1)CNCC2)c1cc(Cl)cc2[nH]ncc12" , can you help? < 4.00

Entry "Cn1ccnc1COc1cccc([C@H](NC(=O)OCc2ccccc2)C(=O)Nc2cccc(CN)c2)c1" : reported pIC50 = ? < 4.00

---

Would you mind telling me the reported IC50 of each entry?
Molecular target: Genome polyprotein (dengue virus type 2, UniProt P29990)
Assay type: functional, Thailand/16681/1984
Just the number please, in µM, no unit attached.

May I ask what IC50 has been recorded for "NCc1cc(CO)cc([C@H]2C[C@@H]2c2cc(Cl)cc(NC(=O)OCc3ccccc3)c2)c1" ? 29.7

Quick one: IC50 of "O=C(O)C[C@H]1CN(c2ccc(-c3cc(Cl)cc(NC(=O)OCc4ccccc4)c3)cn2)CCO1" ? 35.2

Can you look up the measured IC50 of "Cc1cc(CN)cc(NC(=O)c2cc(Cl)cc(NC(=O)OCc3ccccc3)c2)c1" for me? 42.2

What does the record list as IC50 for "CNC(=O)c1cc(Cl)c(F)cc1NS(=O)(=O)c1ccc(Oc2ccccc2Cl)cc1" ? 14.9

---

Exercise: for every item that follows, state its recorded IC50.
Target: UniProt:P29990
Type: functional, Thailand/16681/1984

Look up IC50 for this compound: "Cc1cc(NC(=O)OCc2ccccc2)cc(C(=O)Nc2cccc(CN)c2)c1" > 100 µM

Consider the compound shown here: "Cc1c(C(=O)Nc2cc(C(=O)N3CC4(CCO4)C3)ccn2)cc(C2CC2)n1C" What is its recorded IC50? > 100 µM

Item "NCc1cccc(NC(=O)[C@@H](NC(=O)OCc2ccccc2)C2CCN(C(=O)C3CC3)CC2)c1" has what recorded IC50? > 100 µM

Need IC50, item "N[C@H]1CCc2cc(NC(=O)c3cc(Cl)cc4[nH]ncc34)ccc21" 59.2 µM

Recorded IC50 of "Cc1ccc(NC(=O)c2cc(C3CC3)n(C)c2C)cc1-c1cccnc1" , please. > 100 µM

---

Target: Genome polyprotein (dengue virus type 2)
Assay type: functional, Thailand/16681/1984
pIC50: −log10 of the molar value.
parameterMeasured: pIC50

// lookup pIC50 for "CN1CCC([C@H]2CCCN(C(=O)Nc3ccc4c(c3)CNC4)C2)CC1" < 4.00

Report pIC50 for "COC1CN(C(=O)c2ccnc(NC(=O)c3cc(C4CC4)n(C)c3C)c2)C1" please. < 4.00

Need pIC50 of "NCCCc1ccnc(NC(=O)c2nnc(C3CC3)s2)c1" , thanks. < 4.00

Field request: pIC50 | item: "N[C@H]1CCN(c2ccc(NS(=O)(=O)c3ccc(Oc4ccccc4Cl)cc3)cc2)C1" < 4.00

What does the record list as pIC50 for "O=C(Nc1cc(Cl)cc(C(=O)Nc2ccc3c(c2)[C@H]2CC[C@H]3N2)c1)OCc1ccccc1" ? < 4.00

// lookup pIC50 for "N#Cc1cccc(-c2nc3c(C(=O)NCc4ccccn4)cc(Cl)cc3[nH]2)c1" < 4.00

Which pIC50 is reported for this molecule? "CN(C)Cc1cc(NC(=O)[C@H](NC(=O)OCc2ccccc2)c2ccc(OCc3ccccc3)cc2)sn1" < 4.00

What measured pIC50 goes with "O=C(Nc1ccc2c(c1)CNC2)N1C[C@H](C2CC2)C[C@@H]1C1CC1" ? < 4.00

Look up pIC50 for this molecule: "NCc1cc(NC(=O)c2cc(Cl)cc(NC(=O)OCc3ccccc3)c2)cc(-c2csc(CC(=O)O)c2)c1" < 4.00

---

Molecular target: Genome polyprotein (dengue virus type 2, UniProt P29990)
Assay type: functional, Thailand/16681/1984
parameterMeasured: IC50

Consider the compound shown here: "Cc1cccc(N2CCC(NS(=O)(=O)c3ccc(Cl)cc3C(=O)O)CC2)n1" What is its recorded IC50? > 99.5 µM

// IC50 lookup, key: "CCc1ncc(Cl)cc1C(=O)Nc1ccc2c(c1)CNC2" > 99.5 µM

Which IC50 is reported for this compound? "C=C1C[C@H](c2cccc(CN)c2)[C@@H](c2cc(Cl)cc(NC(=O)OCc3ccccc3)c2)C1" > 99.5 µM

What does the data say about its IC50? Entry: "NCc1cccc(NC(=O)c2cc(Cl)cc(N3CCCC3=O)c2)c1" > 99.5 µM

Would you mind telling me what IC50 value was observed for "CC(C)[C@@H]1CC[C@@H](C)C[C@H]1C(=O)Nc1cccc(CN)c1" ? > 99.5 µM

IC50 lookup needed for "O=C(Nc1ccc2c(c1)CNC2)c1cc(F)cc2[nH]c(-c3cnccc3O)nc12" , thanks. 69.7 µM

Dear colleague, I am looking for the recorded IC50 of the following compound: "O=c1c(N2CC[C@H](CO)C2)nccn1C1CC1" > 99.5 µM

Fill blank: measured IC50 of the compound "O=C(O)c1c(Br)sc2nnsc12" is ____. 69.5 µM

Consider the compound shown here: "O=C(O)c1ccc(Cc2c[nH]c3ccc(Cl)cc23)cc1" What is its recorded IC50? > 99.5 µM

Consider the compound shown here: "Cc1c(C(=O)Nc2cc(C(=O)N3CCNC(=O)C3)ccn2)cc(C2CC2)n1C" What is its recorded IC50? > 99.5 µM

Which IC50 value is on record for "O=C(Nc1cc(Cl)cc(C(=O)N[C@H](c2nn[nH]n2)C2CNC2)c1)OCc1ccccc1" ? > 99.5 µM

Please look up its IC50: "O=C(Nc1cc(Cl)cc(C(=O)Nc2n[nH]c3c2CNC32CC2)c1)OCc1ccccc1" 67.8 µM

Name the recorded IC50 for "O=C(O)c1cc(Cl)ccc1S(=O)(=O)Nc1ccc(F)c(NC(=O)C2CC2)c1" . > 99.5 µM

May I ask what IC50 has been recorded for "CCn1cc(-c2ccc(CN(C)C)cc2)nc(N2CC[C@@H](CO)C2)c1=O" ? > 99.5 µM

Tell me the measured IC50 of "NCc1cccc(NC(=O)[C@@H](NC(=O)OCc2ccccc2)C2CCN(Cc3cccnc3)CC2)c1" , please. > 99.5 µM

For the compound "NCc1cccc(NC(=O)c2cccc(Oc3ccc(Cl)c(Cl)c3)n2)c1" , what IC50 is on record? 95.6 µM

Any idea what its IC50 is? The compound is "CCCC[C@H](NC(=O)OC(C)(C)C)C(=O)N[C@H](C(=O)NCc1ccc(C(N)=O)cc1)c1ccc(OCc2ccccc2)cc1" > 99.5 µM

Which IC50 is reported for this compound? "C[C@H]1CCCCN1C(=O)Cn1ccnc(N2CC[C@@H](CO)C2)c1=O" > 99.5 µM

Tell me the measured IC50 of "Cc1c(C(=O)Nc2ccc3c(c2)CNC3)cc(C2CC2)n1C" , please. > 99.5 µM

// query IC50 value for entry "C[C@@H](NCc1c[nH]c2ccccc12)c1cscn1" > 99.5 µM

Given the compound "O=C(Nc1ccc2c(c1)CNC2)c1cccc2nc(C(F)(F)F)[nH]c12" , what is its reported IC50? > 99.5 µM

Given the entry "C=C(C)c1cc(NC(=O)OCc2ccccc2)cc(C(=O)Nc2cccc(CN)c2)c1" , report its measured IC50. 50.4 µM

Name the reported IC50 value associated with the compound "O=C(O)c1nccn2ncc(Cc3c[nH]c4ccc(Cl)cc34)c12" > 99.5 µM

I am curious: what IC50 value has been reported for "CNC(=O)c1cc(Br)cc([C@H](Nc2ccc3c(c2)CNC3)C(=O)NCC(F)F)c1" ? > 99.5 µM

Recorded IC50 of "NCc1cccc(NC(=O)[C@H](NC(=O)OCc2ccccc2)C2CCN(C(=O)C3CCOCC3)CC2)c1" , please. > 99.5 µM

Name the reported IC50 value associated with the compound "CCCC[C@H](NC(C)=O)C(=O)N[C@H](C(=O)NCc1ccc(C(N)=O)cc1)c1ccc(OCc2ccccc2)cc1" > 99.5 µM

IC50 for "NCc1cc(Br)cc([C@H]2C[C@@H]2c2cc(Cl)cc(NC(=O)OCc3ccccc3)c2)c1" ? 16.1 µM

// returns reported IC50 for input "NC1(c2cccc(NS(=O)(=O)c3ccc(Oc4ccccc4Cl)cc3)c2)CCOCC1" > 99.5 µM

Give its IC50 value. Item: "CC(C)[C@@H]1[C@H](C(=O)Nc2cccc(CN)c2)CCN1C(=O)OCc1ccccc1" > 99.5 µM

Dear colleague, I am looking for the recorded IC50 of the following compound: "CCn1ccnc(N2CC(=O)[C@@H](c3c[nH]c4ccccc34)C2)c1=O" > 99.5 µM

Name the recorded IC50 for "Cn1nccc1CN1CCC(NS(=O)(=O)c2ccc(Cl)cc2C(=O)O)CC1" . > 99.5 µM

Which IC50 is reported for this compound? "NCc1cccc(CNC(=O)c2cc(Cl)cc(NC(=O)OCc3ccccc3)c2)c1" > 99.5 µM

// returns reported IC50 for input "O=C(NCCO)c1cc(Cl)ccc1NS(=O)(=O)c1ccc(Oc2ccccc2Cl)cc1" 68 µM

Report IC50 for "O=C(Nc1ccc2c(c1)CNC2)N1CCC2(C1)CC(F)(F)C2" please. > 99.5 µM

Which value of IC50 has been reported for "O=C(NCc1nnn[nH]1)c1cc(Cl)ccc1NS(=O)(=O)c1ccc(Oc2ccccc2Cl)cc1" in the records? 64.5 µM

State the recorded IC50 for this entry: "O=C(Nc1ccc2nc[nH]c2c1)c1cc(F)cc2[nH]ncc12" > 99.5 µM

Could you tell me which IC50 is on file for "CCCOc1ccc2[nH]cc(CN3CCC(c4cscn4)CC3)c2c1" ? > 99.5 µM

Please give the measured IC50 for this compound: "c1ccc(C2CCN(Cc3ccc4nccnc4c3)CC2)nc1" > 99.5 µM

Which measured IC50 value corresponds to "O=C(O)c1cc(Cl)ccc1S(=O)(=O)NC1CCN(S(=O)(=O)c2ccc(I)cc2)CC1" ? 81.7 µM

Could you share which IC50 value was measured for "Cn1ccnc(N2CCC(NS(=O)(=O)c3ccc(Cl)cc3C(=O)O)CC2)c1=O" ? > 99.5 µM

What IC50 value was documented for this compound, "COc1ccc(S(=O)(=O)n2nc(OC(=O)c3ccccc3)cc2N)cc1" ? 3.47 µM
